# System: HCT-116 colon
# Test: NCI tumour cell line growth inhibition, 48 h
Measured Attribute: TGI (µM)
Give bare numbers, in µM.

>>> result_number("O=[N+]([O-])c1ccc(C2N3CCCCC3[C@@H]3c4[nH]c5ccccc5c4CCN23)cc1 (stereo not given in full)")
19.7

// next item, TGI requested
Measured TGI, COc1cc(C2c3cc4c(cc3OC(O)C2C)OCO4)cc(OC)c1O (stereo not given) : 38.3

* * *

Kindly supply the reported TGI values for the records listed here.
# Tested on: HL-60(TB) leukemia
# Test: NCI tumour cell line growth inhibition, 48 h

>>> result("CN(C)C1COC2Cc3ccccc3C1O2 (centres undefined)")
"> 100 µM"
>>> result("CCNC(=O)Cc1nc2c(=O)[nH]cnc2n1C1OC(CO)C(O)C1O (centres undefined)")
"> 100 µM"
>>> result("Cc1ccc(S(=O)(=O)N2C/C(=C\\c3cc(F)cc(F)c3)C(=O)/C(=C/c3cc(F)cc(F)c3)C2)cc1")
"1.05 µM"
>>> result("COC(=O)c1cc(/C=C2\\Cc3cc4c(cc3C2=O)CCC4)cc2c1CCC2")
"> 100 µM"
>>> result("C=CCn1c(=S)sc2c(=O)[nH]cnc21")
"> 100 µM"
>>> result("CN(CCNC(=O)c1cc(-c2ccccc2)nc2ccccc12)CCNC(=O)c1cc(-c2ccccc2)nc2ccccc12")
"24.9 µM"

The following compounds each have a reported value; give each one's TGI.
1. OCCCNC(=S)Nc1ccc(-c2nc3ccccc3s2)cc1
2. Cn1cc(-c2nc(-c3cn(C)c4ncccc34)cs2)c2cc(F)ccc21
3. CO[C@H]1C[C@H](O[C@H]2CC[C@]3(C=O)[C@H]4CC[C@]5(C)[C@@H](C6=CC(=O)OC6)CC[C@]5(O)[C@@H]4CC[C@]3(O)C2)O[C@H](C)[C@H]1O[C@@H]1O[C@H](CO[C@@H]2O[C@H](CO)[C@@H](O)[C@H](O)[C@H]2O)[C@@H](O)[C@H](O)[C@H]1O

### Response
> 100 µM
88.7 µM
0.2 µM

* * *

# Test system: DU-145 prostate
# Test: NCI tumour cell line growth inhibition, 48 h
Where a SMILES comes first, the peptide text is derived from it. Bridges are numbered along the chain shown (N, C = ends). Roman numbers before positions name the chains, in order. [ ]: non-standard residue; d: D form. The star is where a group is joined. Heptadecanoyl = CCCCCCCCCCCCCCCCC(=O)*; Phg = N[CH](C(=O)O)c1ccccc1
Measured Attribute: TGI

Known TGI results, listed for orientation:
>>> result("Cc1cccc2c(=O)c3c(sc12)c(NCCN)nc1ccccc13")
"1.97 µM"
>>> result("CC1(CC(=O)OC(C#C[Si](C)(C)C)Cc2ccccc2)OCCO1 (stereo unspecified)")
"> 100 µM"
>>> result("Cc1ccc(OCCn2cc(Nc3ccccc3)c(=O)[nH]c2=O)cc1")
"> 100 µM"
>>> result("CCCCCCCCCCCCCCCCC(=O)N1CCCC1C(=O)NCC(=O)NC(C(=O)N1CCCC1C(=O)NC(CO)C(=O)NC(Cc1ccc(O)cc1)C(=O)NC(CCCCNC(=O)C1CCCN1C(=O)C(CCCCN)NC(=O)C(CCCCN)NC(=O)C(CCCCN)NC(=O)C(CCCNC(=N)N)NC(=O)C(CCCCN)NC(=O)C(N)C(C)C)C(=O)NC(CC(C)C)C(=O)NC(CCCNC(=N)N)C(=O)N1CCCC1C(=O)NCC(N)=O)c1ccccc1 (stereo unspecified) (I: Heptadecanoyl-PG[Phg]PSYKLRPG-NH2 / II: H-VKRKKKP; amide I:7-II:C; configuration not given here)")
"61.5 µM"
>>> result("O=C(Nc1cccc2ccccc12)c1cc2ccccc2cc1O")
"> 100 µM"

// next item, TGI requested
Measured TGI, COc1cc2c(cc1OC)C(=O)/C(=C/c1ccccc1)C2 : > 100 µM
